Recorded values, source patent US20250333515A1.

subject_of_test: biotinylated recombinant human CLL-1 extracellular domain protein, isoform with lysine at amino acid position 244 (human) (UniProt Q5QGZ9)
Sequence (Q5QGZ9 65-265): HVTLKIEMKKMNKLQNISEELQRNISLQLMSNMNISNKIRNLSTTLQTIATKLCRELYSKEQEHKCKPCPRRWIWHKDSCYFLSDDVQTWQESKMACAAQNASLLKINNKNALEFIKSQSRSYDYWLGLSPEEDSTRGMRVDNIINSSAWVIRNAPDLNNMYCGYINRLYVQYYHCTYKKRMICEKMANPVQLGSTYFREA
protocol_text: Octet (CLL-1-K244); variant: Both
endpoint_name: pKd
Entry type: numeric. Quantity: pKd, the -log10 of concentration in molar units.

# query: pKd of entry Anti-CLL-1 Binder Clone 38 (scFv, not shown: small tags and cut ends) scFv: DIQMTQSPSTLSASVGDRVTITCRASQSISSWLAWYQQKPGKAPKLLIYTASSLQSGVPSRFSGSESGTDFTLTISSLQPEDFATYYCQQSYSTPLTFGGGTKVDIKGGGGSGGGGSGGGGSQVQLVQSGAEVKKPGASVKVSCKASGYTFTGYYMHWVRQAPGQGLEWMGWINPNSGGTNYAQKFQGRVTLTRDTSITTAYLELTSLTSDDTAVYYCARGDTGDFFDHWGQGTLVTVSS
8.76

# query: pKd of entry Anti-CLL-1 Binder Clone 20 (VHH, not shown: small tags and cut ends) VHH: QVQLVQSGGGLVQPGGSLRLSCAASDFSFSYYEMSWVRQAPGKGLEWVSTISGSGDSTYYADSVKGRFTISRDNTKNTLYLQMNTLRAEDTATYYCMTDGETWGTHRYTVYWGQGALVTVSS
8.25

# query: pKd of entry Anti-CLL-1 Binder Clone 10 (scFv, not shown: small tags and cut ends) scFv: DIQMTQSPSFLSASVGDRVTITCRASQGISSYLAWYQQKPGKAPKLLIYSASSLQSGVPSRFSGSGSGTDFTLTISSLQPEDFATYYCQQSYNSPTFGQGTRLEIKGGGGSGGGGSGGGGSQVQLVQSGAEVKKPGASVKVSCKASGYTFTGYYMHWVRQAPGQGLEWMGWMNPNSGNTGYAQKFQGRVTMTRNTSISTAYLELTSLTSDDTAVYYCARGDTGDFFDHWGQGTLVTVSS
8.58

# query: pKd of entry Anti-CLL-1 Binder Clone 6 (scFv, not shown: small tags and cut ends) scFv: QSVLTQPPSVSAAPGQKVSIFCSGGSSNIGKNYVSWYQQLPGTAPKLLIYENQHRPSGIPDRFSGSKSGTSATLGITGLQTGDEADYYCATWDDSLSAGVFGGGTELTVLGGGGSGGGGSGGGGSQLVQSGAEVRKPGESLKISCKGSGYSFTSYWIGWVRQMPGKGLEWMGFIYPGDSDTRYSPSFQGQVTISADKSISTAYLQRSSLKASDTAMYYCARLGGYSGYDSEVFYLDYWGQGTTVTVSS
8.29
